These data points were gathered from patent US20250129027A1.

Target: human recombinant FAAH (Homo sapiens (Human))
Experiment: In vitro inhibition of FAAH activity (fluorescent inhibitor screening kit, AMC arachidonoyl amide)
Format: biochemical
Details: human recombinant FAAH; read-out: Inhibition on FAAH activity (IC50)
parameter: IC50

molecule	system	IC50
O=C(NCc1ccccc1)Oc1cccc(-c2cncc(-c3nnco3)c2)c1 [Example 135]	human recombinant FAAH (Homo sapiens (Human))	> 100 nM
CCCCCCCCNC(=O)Oc1ccc(O)c(-c2cncc(-c3nnn[nH]3)c2)c1 [Example 244]	human recombinant FAAH (Homo sapiens (Human))	100 to 1000 nM
O=C(Nc1cnccc1Cl)N1CCN(Cc2ccc3c(c2)OC(F)(F)O3)CC1 [JNJ-42165279, reference compound]	human recombinant FAAH (Homo sapiens (Human))	106 nM
COc1ccc(OC(=O)NCc2ccccc2)cc1-c1cncc(-c2cccs2)c1 [Example 67]	human recombinant FAAH (Homo sapiens (Human))	> 1000 nM

[ask] Complete the entry with IC50 for CCCCCCCCNC(=O)Oc1ccc(OC)c(-c2cncc(-c3ncn[nH]3)c2)c1 [Example 232]
[reply] 10 to 100 nM

[ask] Answer with reported IC50 of CCCCCCCCNC(=O)Oc1cccc(-c2cncc(-c3nncs3)c2)c1 [Example 207]
[reply] 1 to 10 nM

[ask] // Input: COc1cc(OC(=O)NC2CCCC2)cc(-c2cncc(-c3nnco3)c2)c1 [Example 177] . Output its IC50 only.
[reply] 100 to 1000 nM

[ask] Give reported IC50 value for O=C(NC1CCCCCC1)Oc1cccc(-c2cncc(-c3ccno3)c2)c1 [Example 108]
[reply] 10 to 100 nM

[ask] Consider the molecule CSc1ccc(OC(=O)NC2CCCCC2)cc1-c1cncc(-c2nnco2)c1 [Example 190] . State its measured IC50.
[reply] 100 to 1000 nM

----------
Below, each of the molecules is paired with its reported IC50 value.
Target: human recombinant FAAH (Homo sapiens (Human), UniProt O00519)
Sequence (O00519 whole entry): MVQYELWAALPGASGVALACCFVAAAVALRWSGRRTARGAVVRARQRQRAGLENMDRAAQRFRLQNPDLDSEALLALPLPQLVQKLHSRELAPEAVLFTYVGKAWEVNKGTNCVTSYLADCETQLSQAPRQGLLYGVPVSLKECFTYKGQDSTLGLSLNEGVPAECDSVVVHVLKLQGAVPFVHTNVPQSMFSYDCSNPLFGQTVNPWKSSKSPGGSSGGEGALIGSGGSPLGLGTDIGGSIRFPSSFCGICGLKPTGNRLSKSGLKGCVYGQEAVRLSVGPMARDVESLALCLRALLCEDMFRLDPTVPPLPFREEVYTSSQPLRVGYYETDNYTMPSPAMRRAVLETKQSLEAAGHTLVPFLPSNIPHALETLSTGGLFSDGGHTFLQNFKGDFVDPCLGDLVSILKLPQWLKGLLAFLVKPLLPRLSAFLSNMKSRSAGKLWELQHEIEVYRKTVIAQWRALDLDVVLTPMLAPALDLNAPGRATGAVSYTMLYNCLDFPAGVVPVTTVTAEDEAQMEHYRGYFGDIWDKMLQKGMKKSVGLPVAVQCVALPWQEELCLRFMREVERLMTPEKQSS
Experiment: In vitro inhibition of FAAH activity (fluorescent inhibitor screening kit, AMC arachidonoyl amide)
Format: biochemical
Conditions: human recombinant FAAH; read-out: Inhibition on FAAH activity (IC50)

molecule	experimental.result
COc1ccc(OC(=O)NCc2ccccc2)cc1-c1cncc(-c2ccco2)c1 [Example 55]	~1000 nM
O=C(NCC1CCCCC1)Oc1cccc(-c2cncc(-c3nnco3)n2)c1 [Example 264]	10 to 100 nM
COc1ccc(OC(=O)NC2CCCC2)cc1-c1cncc(-c2cccs2)c1 [Example 68]	100 to 1000 nM
COc1ccc(OC(=O)NC2CCCCC2)cc1-c1cncc(-c2cccs2)c1 [Example 69]	100 to 1000 nM

[ask] Please respond with reported IC50 (system human recombinant FAAH (Homo sapiens (Human), UniProt O00519)) for COc1ccc(OC(=O)NC2CCCC2)cc1-c1cncc(-c2ccco2)c1 [Example 56] .
[reply] 100 to 1000 nM

[ask] Provide the reported IC50 (system: human recombinant FAAH (Homo sapiens (Human), UniProt O00519)) for COc1ccc(OC(=O)NCC2CCCCC2)cc1-c1cncc(-c2ncn[nH]2)c1 [Example 233]
[reply] 100 to 1000 nM

[ask] Tell me its IC50 on human recombinant FAAH (Homo sapiens (Human), UniProt O00519): O=C(NCC1CCCCC1)Oc1cc(O)cc(-c2cncc(-c3nnco3)c2)c1 [Example 161]
[reply] 10 to 100 nM
